Answer each item with its documented koff.
target: T1, GST-human NOGO-A56 (human); assay: SPR (Biacore) off-rate on NOGO chip, panel of H6FL CDR H3 variants with L13FL
T1 construct: Expressed in E. coli BL21 from pGEX-6P1 and purified on glutathione-sepharose; the GST tag is part of the protein in the assays; also called GST-Nogo-A 5+6; GST Nogo-A 5 + 6
T1 sequence (chain, as listed by the source limits assumed): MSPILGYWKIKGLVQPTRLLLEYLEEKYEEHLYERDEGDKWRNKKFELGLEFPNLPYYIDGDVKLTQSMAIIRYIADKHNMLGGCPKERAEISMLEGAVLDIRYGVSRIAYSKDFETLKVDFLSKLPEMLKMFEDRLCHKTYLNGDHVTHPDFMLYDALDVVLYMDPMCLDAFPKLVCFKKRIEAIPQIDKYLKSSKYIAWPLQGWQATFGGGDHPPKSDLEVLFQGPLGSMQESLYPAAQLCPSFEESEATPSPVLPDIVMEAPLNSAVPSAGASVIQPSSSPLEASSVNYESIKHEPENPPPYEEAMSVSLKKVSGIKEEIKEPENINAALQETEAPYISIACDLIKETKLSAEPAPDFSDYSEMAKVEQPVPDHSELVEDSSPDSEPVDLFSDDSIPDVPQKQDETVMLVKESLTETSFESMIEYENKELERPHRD
Answers are plain numbers, in s⁻¹.

Below: 3 binders and their reported koff.
[[record]]
binder = "H6L13 variant with VH CDR3 GQSY (antibody, human IgG1, kappa, V domains shown, Single point variant of H6FL with L13FL) VH: QVQLVQSGAEVKKPGASVKVSCKASGYTFTSYWMHWVRQAPGQGLEWIGNINPSNGGTNYNEKFKSRATMTRDTSTSTAYMELSSLRSEDTAVYYCELGQSYWGQGTLVTVSS VL: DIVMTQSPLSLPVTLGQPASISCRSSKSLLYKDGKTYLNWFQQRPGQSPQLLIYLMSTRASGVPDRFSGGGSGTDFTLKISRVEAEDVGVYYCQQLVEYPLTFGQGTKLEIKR"
reported = 0.0186

[[record]]
binder = "H6L13 variant with VH CDR3 GIGY (antibody, human IgG1, kappa, V domains shown, Single point variant of H6FL with L13FL) VH: QVQLVQSGAEVKKPGASVKVSCKASGYTFTSYWMHWVRQAPGQGLEWIGNINPSNGGTNYNEKFKSRATMTRDTSTSTAYMELSSLRSEDTAVYYCELGIGYWGQGTLVTVSS VL: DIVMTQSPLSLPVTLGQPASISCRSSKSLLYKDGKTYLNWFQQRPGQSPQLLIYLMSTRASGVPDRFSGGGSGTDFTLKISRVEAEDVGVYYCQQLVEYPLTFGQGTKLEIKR"
reported = 0.0257

[[record]]
binder = "H6L13 (H6FL L13FL) (antibody, human IgG1, kappa, V domains shown, Human IgG1 (L235A, G237A, EU Index) / kappa; also called H6L13 with VH CDR3 GQGY) VH: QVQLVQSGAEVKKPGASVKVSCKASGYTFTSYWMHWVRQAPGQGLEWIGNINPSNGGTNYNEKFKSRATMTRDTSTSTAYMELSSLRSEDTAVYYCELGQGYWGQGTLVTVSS VL: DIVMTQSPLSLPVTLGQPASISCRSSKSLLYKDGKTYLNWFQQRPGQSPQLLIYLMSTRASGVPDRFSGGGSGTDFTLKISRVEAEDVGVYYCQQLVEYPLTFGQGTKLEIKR"
reported = 0.0198


# next binder below
Q. Identify measured koff associated with H26L13 (antibody, human IgG1, kappa, V domains shown, H26 FL is H6 FL with G95M (Kabat); IgG1 (L235A, G237A) / kappa; CAMPATH-1H signal (1-19) left out; also called H6(G95M)L13; H6L13 with VH CDR3 MQGY) VH: QVQLVQSGAEVKKPGASVKVSCKASGYTFTSYWMHWVRQAPGQGLEWIGNINPSNGGTNYNEKFKSRATMTRDTSTSTAYMELSSLRSEDTAVYYCELMQGYWGQGTLVTVSS VL: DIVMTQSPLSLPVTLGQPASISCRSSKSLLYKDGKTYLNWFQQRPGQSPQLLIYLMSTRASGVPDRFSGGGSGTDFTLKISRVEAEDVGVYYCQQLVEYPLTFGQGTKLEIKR
A. 0.00485
